System: Acinetobacter baumannii
method: Antimicrobial activity against oxacillinase-58 producing Acinetobacter baumannii K12-21 assessed as reduction in bacterial growth incubated for 48 hrs by microdilution method
Format: functional
MIC overview
observable: MIC (µg/mL)

{"smiles code": "CC(C)(C)c1cc(CC2(Cc3cc(C(C)(C)C)cc(C(C)(C)C)c3)C(=O)N(CCCCN)C(=O)N(CCCCN)C2=O)cc(C(C)(C)C)c1.O=C(O)C(F)(F)F.O=C(O)C(F)(F)F", "observable": "MIC", "readout relation": "=", "measured result": 4}
{"smiles code": "NCCCCN1C(=O)N(CCCCN)C(=O)C(Cc2ccc(C(F)(F)F)cc2)(Cc2ccc(C(F)(F)F)cc2)C1=O.O=C(O)C(F)(F)F.O=C(O)C(F)(F)F", "observable": "MIC", "readout relation": ">", "measured result": 32}
{"smiles code": "N=C(N)NCCCCN1C(=O)N(CCCCNC(=N)N)C(=O)C(Cc2ccc(Br)c(Cl)c2)(Cc2ccc(Br)c(Cl)c2)C1=O.O=C(O)C(F)(F)F.O=C(O)C(F)(F)F", "observable": "MIC", "readout relation": "=", "measured result": 8}
{"smiles code": "NCCCCN1C(=O)N(CCCCN)C(=O)C(Cc2ccc(F)c3ccccc23)(Cc2ccc(F)c3ccccc23)C1=O.O=C(O)C(F)(F)F.O=C(O)C(F)(F)F", "observable": "MIC", "readout relation": "=", "measured result": 32}
{"smiles code": "N=C(N)NCCCCN1C(=O)N(CCCCNC(=N)N)C(=O)C(Cc2ccc(C(F)(F)F)cc2)(Cc2ccc(C(F)(F)F)cc2)C1=O.O=C(O)C(F)(F)F.O=C(O)C(F)(F)F", "observable": "MIC", "readout relation": ">", "measured result": 32}
{"smiles code": "NCCCCN1C(=O)N(CCCCN)C(=O)C(Cc2cc(Br)cc(Br)c2)(Cc2cc(Br)cc(Br)c2)C1=O.O=C(O)C(F)(F)F.O=C(O)C(F)(F)F", "observable": "MIC", "readout relation": "=", "measured result": 16}
{"smiles code": "CC(C)(C)c1ccc(CC2(Cc3ccc(C(C)(C)C)cc3)C(=O)N(CCCCN)C(=O)N(CCCCN)C2=O)cc1.O=C(O)C(F)(F)F.O=C(O)C(F)(F)F", "observable": "MIC", "readout relation": "=", "measured result": 16}
{"smiles code": "N=C(N)NCCCCN1C(=O)N(CCCCNC(=N)N)C(=O)C(Cc2ccc3ccccc3c2)(Cc2ccc3ccccc3c2)C1=O.O=C(O)C(F)(F)F.O=C(O)C(F)(F)F", "observable": "MIC", "readout relation": "=", "measured result": 32}
{"smiles code": "N=C(N)NCCCCN1C(=O)N(CCCCNC(=N)N)C(=O)C(Cc2cc(C(F)(F)F)cc(C(F)(F)F)c2)(Cc2cc(C(F)(F)F)cc(C(F)(F)F)c2)C1=O.O=C(O)C(F)(F)F.O=C(O)C(F)(F)F", "observable": "MIC", "readout relation": "=", "measured result": 16}
{"smiles code": "NCCCCN1C(=O)N(CCCCN)C(=O)C(Cc2ccc3ccccc3c2)(Cc2ccc3ccccc3c2)C1=O.O=C(O)C(F)(F)F.O=C(O)C(F)(F)F", "observable": "MIC", "readout relation": "=", "measured result": 32}
{"smiles code": "CC(C)(C)c1cc(CC2(Cc3cc(C(C)(C)C)cc(C(C)(C)C)c3)C(=O)N(CCCCNC(=N)N)C(=O)N(CCCCNC(=N)N)C2=O)cc(C(C)(C)C)c1.O=C(O)C(F)(F)F.O=C(O)C(F)(F)F", "observable": "MIC", "readout relation": "=", "measured result": 4}
{"smiles code": "NCCCCN1C(=O)N(CCCCN)C(=O)C(Cc2cc(C(F)(F)F)cc(C(F)(F)F)c2)(Cc2cc(C(F)(F)F)cc(C(F)(F)F)c2)C1=O.O=C(O)C(F)(F)F.O=C(O)C(F)(F)F", "observable": "MIC", "readout relation": "=", "measured result": 16}
